Experiment: Measurement of enzyme substrate degradation (100° C. for 15 minutes) by fluorescence
Type: physicochemical
Conditions: pH 6 LB broth, no spores, read at 60° C., +30 min
Measurement label: MEASURED FLUORESCENCE, RFU +30 min (RFU)

Cc1cc(=O)oc2cc(O[C@H]3O[C@H](CO)[C@@H](O)[C@H](O)[C@H]3O)ccc12 [MUG]: 782
Cc1cc(=O)oc2cc(O[C@H]3O[C@H](CO)[C@@H](O)[C@H](O)[C@H]3O)c(F)cc12 [Example 1]: 948
Cc1cc(=O)oc2cc(O[C@H]3O[C@H](CO)[C@@H](O)[C@H](O)[C@H]3O)cc(F)c12 [Example 2]: 758

The reported numbers originate from patent US12123048B2.
